Values compiled from ChEMBL document CHEMBL4014314.

target: UniProt:Q9Y6K1; experiment: Inhibition of human DNMT3A catalytic domain using AdoMet assessed as reduction of methylation in 5'-biotin/3' 6-carboxyfluorescein labeled DNA duplex at CpG site after 1 hr by fluorescence assay
Sequence (Q9Y6K1 whole entry, looked up, the tested form may be a part): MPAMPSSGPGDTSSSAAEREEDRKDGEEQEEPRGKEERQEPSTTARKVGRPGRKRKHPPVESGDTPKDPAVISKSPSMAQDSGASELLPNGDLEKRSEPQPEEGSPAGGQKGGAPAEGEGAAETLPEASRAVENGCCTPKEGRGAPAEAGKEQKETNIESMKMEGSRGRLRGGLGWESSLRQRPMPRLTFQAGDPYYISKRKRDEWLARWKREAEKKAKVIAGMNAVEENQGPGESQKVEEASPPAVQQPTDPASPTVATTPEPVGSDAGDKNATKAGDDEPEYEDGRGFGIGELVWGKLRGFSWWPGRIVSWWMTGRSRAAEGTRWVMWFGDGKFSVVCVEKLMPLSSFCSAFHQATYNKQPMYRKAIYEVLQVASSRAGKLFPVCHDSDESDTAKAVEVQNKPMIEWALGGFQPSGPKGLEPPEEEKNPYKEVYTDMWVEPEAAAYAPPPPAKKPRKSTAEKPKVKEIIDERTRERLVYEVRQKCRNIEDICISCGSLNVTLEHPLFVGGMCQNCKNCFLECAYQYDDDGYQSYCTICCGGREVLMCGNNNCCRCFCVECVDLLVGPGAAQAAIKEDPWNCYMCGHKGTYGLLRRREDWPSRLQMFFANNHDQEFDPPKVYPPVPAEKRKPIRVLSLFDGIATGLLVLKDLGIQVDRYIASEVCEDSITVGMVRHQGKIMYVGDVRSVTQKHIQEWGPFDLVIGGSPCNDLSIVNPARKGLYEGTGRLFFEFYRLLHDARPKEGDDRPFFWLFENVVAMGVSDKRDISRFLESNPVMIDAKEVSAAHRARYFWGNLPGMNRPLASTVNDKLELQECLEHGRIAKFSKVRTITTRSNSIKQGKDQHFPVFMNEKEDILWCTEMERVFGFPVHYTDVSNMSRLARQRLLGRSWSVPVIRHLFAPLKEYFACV
# maps each entry to its EC50
Property: EC50 (µM)

Chemical Structure: Cc1cc(NCCN2CCC(COc3ccc4c(NCCCc5ccccc5)ncnc4c3)CC2)c2ccccc2n1
Property: EC50
Readout Units: µM
Quantitative Readout: 2.1
--
Chemical Structure: Clc1cccc(CCNc2ncnc3cc(OCC4CCN(CCNc5ccnc6ccccc56)CC4)ccc23)c1
Property: EC50
Readout Units: µM
Quantitative Readout: 1
--
Chemical Structure: c1ccc2c(CCCNc3ncnc4cc(OCC5CCN(CCNc6ccnc7ccccc67)CC5)ccc34)cccc2c1
Property: EC50
Readout Units: µM
Quantitative Readout: 1.9
--
Chemical Structure: COc1cc2nccc(NCCN3CCC(COc4ccc5c(NCCCc6ccccc6)ncnc5c4)CC3)c2cc1OC
Property: EC50
Readout Units: µM
Quantitative Readout: 1.4
--
Chemical Structure: c1ccc2c(NCCNc3ncnc4cc(OCC5CCN(CCNc6ccnc7ccccc67)CC5)ccc34)cccc2c1
Property: EC50
Readout Units: µM
Quantitative Readout: 0.3
--
Chemical Structure: COc1ccc(CCNc2ncnc3cc(OCC4CCN(CCNc5ccnc6ccccc56)CC4)ccc23)cc1
Property: EC50
Readout Units: µM
Quantitative Readout: 3.4
--
Chemical Structure: c1ccc(NCCNc2ncnc3cc(OCC4CCN(CCNc5ccnc6ccccc56)CC4)ccc23)cc1
Property: EC50
Readout Units: µM
Quantitative Readout: 6.8
--
Chemical Structure: c1ccc(-c2ccc(CNc3ncnc4cc(OCC5CCN(CCNc6ccnc7ccccc67)CC5)ccc34)cc2)cc1
Property: EC50
Readout Units: µM
Quantitative Readout: 1.1
--
Chemical Structure: c1ccc(CCCNc2ncnc3cc(OCC4CCN(CCNc5ccnc6ccccc56)CC4)ccc23)cc1
Property: EC50
Readout Units: µM
Quantitative Readout: 4.4
--
Chemical Structure: Clc1ccc(CCNc2ncnc3cc(OCC4CCN(CCNc5ccnc6ccccc56)CC4)ccc23)cc1
Property: EC50
Readout Units: µM
Quantitative Readout: 1.2
--
Chemical Structure: c1ccc(CCNc2ncnc3cc(OCC4CCN(CCNc5ccnc6ccccc56)CC4)ccc23)cc1
Property: EC50
Readout Units: µM
Quantitative Readout: 4.9
